B1: library; a variant is named by its letters at N, in order (parent)
chain: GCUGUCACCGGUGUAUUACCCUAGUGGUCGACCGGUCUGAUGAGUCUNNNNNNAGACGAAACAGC

variants of: B1; experiment: FACS-Seq fitted mean relative fluorescence mCherry/BFP without ligand (log10 relative fluorescence); ligand: hypoxanthine (xanthine aptamer); higher = higher reporter protein expression; conditions: HEK293T, ligand present: no
ENDPOINT: FACS-Seq fitted mean (log10)
Enter the number alone.

As a guide, the following entries are already answered.
| MUTATION DESCRIPTOR | ENDPOINT | TEST RESULT |
| --- | --- | --- |
| UAUAAG | FACS-Seq fitted mean (log10) | 0.0362 |
| GUGACU | FACS-Seq fitted mean (log10) | -0.666 |
| GUACAG | FACS-Seq fitted mean (log10) | 0.688 |

What value of FACS-Seq fitted mean (log10) has been recorded for this entry: `UGUUGU`
0.254

Which FACS-Seq fitted mean (log10) value belongs to `GACGUU` ?
0.455
